- Assayed System: Polyunsaturated fatty acid 5-lipoxygenase (Homo sapiens)
- Sequence (P09917 whole entry): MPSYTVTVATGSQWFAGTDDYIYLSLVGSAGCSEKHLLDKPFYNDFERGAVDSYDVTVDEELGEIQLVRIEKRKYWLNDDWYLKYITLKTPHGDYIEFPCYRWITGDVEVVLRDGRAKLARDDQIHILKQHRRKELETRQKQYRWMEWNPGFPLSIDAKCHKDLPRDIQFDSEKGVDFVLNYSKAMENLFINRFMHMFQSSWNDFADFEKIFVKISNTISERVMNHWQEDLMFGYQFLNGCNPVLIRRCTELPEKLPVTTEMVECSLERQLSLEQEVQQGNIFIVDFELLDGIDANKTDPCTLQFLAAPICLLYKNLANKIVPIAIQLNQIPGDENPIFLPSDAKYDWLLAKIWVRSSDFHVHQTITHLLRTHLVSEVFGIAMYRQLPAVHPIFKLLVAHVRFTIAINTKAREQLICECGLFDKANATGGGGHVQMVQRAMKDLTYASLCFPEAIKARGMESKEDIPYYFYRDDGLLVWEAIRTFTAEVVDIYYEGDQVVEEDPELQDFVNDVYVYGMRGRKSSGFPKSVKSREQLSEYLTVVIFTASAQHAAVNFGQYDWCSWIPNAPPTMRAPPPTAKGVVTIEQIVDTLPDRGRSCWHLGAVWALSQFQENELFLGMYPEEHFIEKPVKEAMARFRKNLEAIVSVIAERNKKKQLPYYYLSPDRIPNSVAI
- Experimental Protocol: In vitro inhibition of LTB4 biosynthesis in [Ca(2+)]-ionophore-activated human polymorphonuclear leukocytes
- Type: functional
Observed Property: IC50 (nM)

| Molecule | Reported |
| --- | --- |
| CC1Cc2c(SCc3ccc(-c4ccccc4)cn3)ccc3c2c(c(CC(C)(C)Cc2nnn[nH]2)n3Cc2ccc(Cl)cc2)S1 (centres undefined) | 11 |
| COc1cccc(Cn2c(CC(C)(C)C(=O)O)c3c4c(c(OCc5ccc(-c6ccccc6)cn5)ccc42)CC(C)S3)c1 (centres undefined) | 28 |
| CC(C)(Cc1c2c3c(c(OCc4ccc(-c5ccccc5)cn4)ccc3n1Cc1ccc(Cl)cc1)CCCS2)C(=O)O | 160 |
| CC1Cc2c(OCc3ccc4ccccc4n3)ccc3c2c(c(CC(C)(C)C(=O)O)n3Cc2ccc(Cl)cc2)S1 (centres undefined) | 3 |
